B1: HDV Ribozyme (parent)
chain: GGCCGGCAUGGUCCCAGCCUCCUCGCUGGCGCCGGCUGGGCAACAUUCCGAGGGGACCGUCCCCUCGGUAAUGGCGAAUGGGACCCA

Variants of: B1
Experiment: self-cleavage, relative activity (ratio to wild type); higher = more cleavage; co-transcriptional
metricName: self-cleavage
Quick one: just the number, no unit, thanks!

As a guide, the following entries are already answered.
GGCCGGCAUGGUCCCAGGCUCCUCGCUGGCGCCGGCUGGGCAACAUUCCGAGGGGACCGUCCCCUCGGUAAUGUCGAAUGGGACCCA [C18G G74U] ... 0.116
GGCCGGCAUGGUCCCAGCCUCCUCGCUGGCGCCGGCCGGGCAACAUUCCGAGGGGACCGUCCGCUCGGUAAUGGCGAAUGGGACCCA [U37C C63G] ... 0.965
GGCCGGCAUGGUCCCAGCCUCCUCGCUGGCGCCGGCUGGGCAACAUUCCGAGGGGAUCGUCCCCUCGAUAAUGGCGAAUGGGACCCA [C57U G68A] ... 1.02
GGCCGGCAUGGUCCCAGCCUCCUCGCUGGCGCCGGCUGGGCAACAUUCCGAGGCGACCGUCCCCUCGGUGAUGGCGAAUGGGACCCA [G54C A70G] ... 1.07

Task: Form field: reported self-cleavage of GGCCGACAUGGUCCCAGCCUCCUCGGUGGCGCCGGCUGGGCAACAUUCCGAGGGGACCGUCCCCUCGGUAAUGGCGAAUGGGACCCA [G6A C26G]
Result: 0.856

Task: Form field: reported self-cleavage of GGCCGGCAUGGUCCCAGCCUCCUCGCGGGCGCCGGCUGGUCAACAUUCCGAGGGGACCGUCCCCUCGGUAAUGGCGAAUGGGACCCA [U27G G40U]
Result: 0.293

Task: Form field: reported self-cleavage of GGCCGGCAUGGUCCCAGCCUCCUCGCUGGCGCCGGCUCGGCAACAUUACGAGGGGACCGUCCCCUCGGUAAUGGCGAAUGGGACCCA [G38C C48A]
Result: 0.104

Task: Form field: reported self-cleavage of GGCCGGGAUGGUCCCAGCCUCCUCGCUGGCUCCGGCUGGGCAACAUUCCGAGGGGACCGUCCCCUCGGUAAUGGCGAAUGGGACCCA [C7G G31U]
Result: 0.745

Task: Form field: reported self-cleavage of GGCCGGCAUGGUCCCAGCCGCCUCGCUGGCGCCGGCUGGGCAACAUUCCGAGGGGACCGUCCCCUCGGUAAUGGCGAAUGGGACCCC [U20G A87C]
Result: 0.282

Task: Form field: reported self-cleavage of GGCCGGCAUGGCCCCAGCCUCCUCGCUGGCGCCUGCUGGGCAACAUUCCGAGGGGACCGUCCCCUCGGUAAUGGCGAAUGGGACCCA [U12C G34U]
Result: 0.0396

Task: Form field: reported self-cleavage of AGCCGGCAUGGUCCCAGCCUCCUCGCUGGCGCCGGCUGCGCAACAUUCCGAGGGGACCGUCCCCUCGGUAAUGGCGAAUGGGACCCA [G1A G39C]
Result: 0

Task: Form field: reported self-cleavage of GGCCGGCAUGGUCCCAGCCUCCUCGCUGGCGCCGGCUGGACAACAUUCCGAGGGGACCGUCACCUCGGUAAUGGCGAAUGGGACCCA [G40A C62A]
Result: 0.95

Task: Form field: reported self-cleavage of GGCCGGCAUGGUCCCAGCCUCCUCGCUGGCGCCGGCUGGGUAACAUUCCGAGGGGACCGGCCCCUCGGUAAUGGCGAAUGGGACCCA [C41U U60G]
Result: 1.1

Task: Form field: reported self-cleavage of GGCCGGCAUCGUCCCAGCCUCCUCGCUGGCGCCGGCUGGGCAACAUUCCGAGGGGACCGUCCCCUCGGUAAUGGCGAAUGUGACCCA [G10C G81U]
Result: 0.196

Task: Form field: reported self-cleavage of GGCCGGCAUGGUCCCAGCCUCCUCGCUGGCGCCGGCUGGGCAACAUUCCGAGGGGACCGUCCCCUCAGCAAUGGCGAAUGGGACCCA [G67A U69C]
Result: 0.927

Task: Form field: reported self-cleavage of GGUCGGCAUGGUCCCAGCCUCGUCGCUGGCGCCGGCUGGGCAACAUUCCGAGGGGACCGUCCCCUCGGUAAUGGCGAAUGGGACCCA [C3U C22G]
Result: 0.0193

Origin of the recorded values: the RNAGym collection of RNA variant scans (doi:10.7554/elife.80360)
